# Tested on: MT4
# PROCEDURE_DETAILS: Tested for 50% cytotoxic concentration based on the reduction of viability in mock-infected MT-4 cells
# Assay type: functional
# CONDITION_SUMMARY: Homo sapiens
Recorded measurements of CC50, one per entry

ENTRY_SMILES: CN(C)C(=O)Oc1nsnc1-c1ccccc1
CC50: 46.8 µM

ENTRY_SMILES: Cc1cn([C@H]2C[C@H](N=[N+]=[N-])[C@@H](CO)O2)c(=O)[nH]c1=O
CC50: 3.2 µM

ENTRY_SMILES: CCCN(C)C(=O)Oc1nonc1-c1ccccc1
CC50: 13 µM

ENTRY_SMILES: CCCN(C)C(=O)Oc1no[n+]([O-])c1-c1ccccc1
CC50: 25 µM

ENTRY_SMILES: CCCN(C)C(=O)Oc1no[n+]([O-])c1-c1c(Cl)cccc1Cl
CC50: 8.6 µM
